# experimentalDetails: Cytotoxicity against human KBV1 cells
# Format: functional
# conditionDetails: KB-V1, read-out: ED50 (the source's name)
For each record, write down the corresponding EC50.

Answered examples (2):
CC(=O)O[C@@H]1C=C2C(=O)OC[C@]23CC[C@@H](C)[C@](C)(CCC2=CC(=O)OC2)C3C1 (stereo partly drawn) [ARTICULIN ACETATE] : > 20 µg/mL
C[C@@H]1CC[C@@]23COC(=O)[C@H]2C[C@@H](O)C=C3[C@@]1(C)CCc1ccoc1 : > 20 µg/mL

# next molecule below
Note to self: EC50 recorded for C=C1CC[C@@H]2[C@H]([C@H]3[C@H]1CC[C@]3(C)O)C2(C)C was > 20 µg/mL
